Quick reference: EC50 of the listed items.
Target: Peroxisome proliferator-activated receptor alpha (Homo sapiens)
Sequence (Q07869 whole entry): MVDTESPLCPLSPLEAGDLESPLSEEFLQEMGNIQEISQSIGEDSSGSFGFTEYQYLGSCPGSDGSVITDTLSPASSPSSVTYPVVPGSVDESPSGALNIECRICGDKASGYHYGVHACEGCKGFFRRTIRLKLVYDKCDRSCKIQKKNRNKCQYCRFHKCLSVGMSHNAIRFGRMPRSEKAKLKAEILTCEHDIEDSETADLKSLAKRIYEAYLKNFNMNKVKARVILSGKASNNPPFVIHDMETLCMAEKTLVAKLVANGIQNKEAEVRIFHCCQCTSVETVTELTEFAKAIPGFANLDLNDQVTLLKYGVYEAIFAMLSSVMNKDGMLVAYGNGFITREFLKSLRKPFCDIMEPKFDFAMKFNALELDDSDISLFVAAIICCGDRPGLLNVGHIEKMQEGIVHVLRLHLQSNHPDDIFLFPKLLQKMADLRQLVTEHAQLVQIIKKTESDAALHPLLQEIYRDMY
Test: Binding affinity to human PPAR alpha
Details: read-out: EC50
reported metric: EC50 (nM)

INSERT INTO measurements (sample_smiles, reported_metric, result_units, result_value) VALUES
  ('CC(C)(Oc1ccc(OCCOc2ccc(Oc3ccc(F)cc3)cc2Cl)cc1)C(=O)O', 'EC50', 'nM', 87),
  ('CC(C)(Oc1ccc(OCCCCOc2ccc(Oc3ccc(F)cc3)cc2Cl)cc1)C(=O)O', 'EC50', 'nM', 66),
  ('CC(C)(Oc1cccc(OCCCOc2ccc(Oc3ccc(F)cc3)cc2Cl)c1)C(=O)O', 'EC50', 'nM', 36),
  ('CCCc1cc(Oc2ccc(F)cc2)ccc1OCCCOc1ccc(OC(C)(C)C(=O)O)cc1', 'EC50', 'nM', 110);
